Each record here notes measured IC50.
Test system: T47D breast cancer cells, sgFUCA1
protocol: CRISPR-engineered cancer cell line viability assay (XTT), T47D/sgFUCA1
Type: cell-based
condition.info: Homo sapiens, 72 h, T47D cells with Cas9 and sgFUCA1, treated for three days, absolute IC50 at Y=0.5 viability
Number only, in µM; omit the unit.

# example entries with known answers
>>> df
                        structure_as_smiles  outcome_measure  value_units  endpoint_result
0  CC(=O)O[C@H]1[C@H](C)O[C@@H](ONC(=O)/C=C/c2ccc(CNCCc3c(C)[nH]c4ccccc34)cc2)C[C@@H]1OC(C)=O             IC50           µM             1.11
1  C[C@@H]1O[C@@H](ONC(=O)c2cnc(N3CCC(CNCc4cn(C)c5ccccc45)CC3)nc2)C[C@H](O)[C@@H]1O             IC50           µM             8.72

// switching to the query compound
Kindly note the recorded IC50 for Cc1[nH]c2ccccc2c1CCN(Cc1ccc(/C=C/C(=O)NO[C@H]2C[C@H](O)[C@@H](O)[C@H](C)O2)cc1)C(=O)OCc1oc(=O)oc1C , which is 29.2
